- assayText: Oral bioavailability in rat at 10 mg/kg
- Assay type: ADME, organism-based
- protocolConditions: in vivo
attributeMeasured: bioavailability (%)
Give bare numbers, in %.

-- ask I am curious: what bioavailability value has been reported for "CCc1ccc2c(c1)c(-c1ccc[nH]c1=O)c(C(=O)O)n2Cc1cc([N+](=O)[O-])ccc1F" ?
-- reply 37

----------
- assayText: Clearance in monkey at 3 mg/kg
- Format: ADME, organism-based, Macaca mulatta
- Parameters: dose 3 mg/kg
- protocolConditions: rhesus monkey, in vivo
attributeMeasured: clearance (mL/min/kg)
Answers are plain numbers, in mL/min/kg.

-- ask I am curious: what clearance value has been reported for "CCc1ccc2c(c1)c(-c1ccc[nH]c1=O)c(C(=O)O)n2Cc1cc([N+](=O)[O-])ccc1F" ?
-- reply 10
